# Test system: A549 cells
# Experiment description: MTT assay, percent survival of A549 cells
# Assay type: cell-based
# Measurement context: Table 1; A549; 20 μM
As shown below, each of these compounds has a reported Average Absorbance value.
Please reply with the value in numeric form only.

Worked cases, answers included:
| Compound | Reported value |
| --- | --- |
| Nc1cccc2c(=O)[nH][n]([Pt]([NH2])([NH2])([Cl])([Cl])[N+](=O)[O-])c(=O)c12 | 2.5760 |
| [NH2][Pt]([NH2])([Cl])([Cl])[N+](=O)[O-].c1ccc(-c2oc(-c3ccccc3)c3ccccc23)cc1 | 2.3827 |
| N.N.[Cl][Pt][Cl] [Cis-Pt, Cis-diammineoplatinum(II) dichloride, reference compound] | 2.3228 |
| N[N](c1cc([N+](=O)[O-])cc([N+](=O)[O-])c1)[Pt]([NH2])([NH2])([Cl])([Cl])[N+](=O)[O-] | 1.8554 |
| [NH2][Pt]([NH2])([Cl])([Cl])([N+](=O)[O-])[o+]1c2cc(=O)ccc-2c(-c2ccccc2C(=O)O)c2ccc(O)cc21 | 2.4307 |

q: Reported Average Absorbance, compound [NH2][Pt]([NH2])([Cl])([Cl])([N]1C(=O)CC(C(=O)O)NC1=O)[N+](=O)[O-] (centres unmarked) : ____
a: 2.3731

q: # lookup: Average Absorbance of CC(C)(C(=O)O)C(O)(C(=O)O)C(C)(C)C(=O)[O][Pt]([NH2])([NH2])([Cl])([Cl])[N+](=O)[O-] (centres unmarked)
a: 2.3495

q: Recorded Average Absorbance for CCN(CC)c1ccc2c(-c3ccccc3C(=O)O)c3ccc(=[N+](CC)CC)cc-3[o+]([Pt]([NH2])([NH2])([Cl])([Cl])[N+](=O)[O-])c2c1.[Cl-] , please?
a: 2.2978

----------
# Test system: A549 cells
# Experiment description: MTT assay, percent survival of A549 cells
# Assay type: cell-based
# Measurement context: Table 3; A549; 70 μM
Endpoint: Percent Survival (%)
Numeric only. Scale: %

In the examples that follow, each entry is paired with its recorded Percent Survival.
| Compound | Endpoint | Reported value |
| --- | --- | --- |
| N.N.[Cl][Pt][Cl] [Cis-Pt, Cis-diammineoplatinum(II) dichloride, reference compound] | Percent Survival | 27.5001 |
| [NH2][Pt]([NH2])([Cl])([Cl])([N]1C(=O)CC(C(=O)O)NC1=O)[N+](=O)[O-] (centres unmarked) | Percent Survival | 23.4680 |
| [NH2][Pt]([NH2])([Cl])([Cl])[N+](=O)[O-].c1ccc(-c2oc(-c3ccccc3)c3ccccc23)cc1 | Percent Survival | 22.2891 |
| CC(C)(C(=O)O)C(O)(C(=O)O)C(C)(C)C(=O)[O][Pt]([NH2])([NH2])([Cl])([Cl])[N+](=O)[O-] (centres unmarked) | Percent Survival | 25.4943 |
| Nc1cccc2c(=O)[nH][n]([Pt]([NH2])([NH2])([Cl])([Cl])[N+](=O)[O-])c(=O)c12 | Percent Survival | 28.8919 |
| CCN(CC)c1ccc2c(-c3ccccc3C(=O)O)c3ccc(=[N+](CC)CC)cc-3[o+]([Pt]([NH2])([NH2])([Cl])([Cl])[N+](=O)[O-])c2c1.[Cl-] | Percent Survival | 25.2364 |
| N[N](c1cc([N+](=O)[O-])cc([N+](=O)[O-])c1)[Pt]([NH2])([NH2])([Cl])([Cl])[N+](=O)[O-] | Percent Survival | 20.7090 |

q: Give recorded Percent Survival with A549 cells for the following compound: [NH2][Pt]([NH2])([Cl])([Cl])([N+](=O)[O-])[o+]1c2cc(=O)ccc-2c(-c2ccccc2C(=O)O)c2ccc(O)cc21
a: 25.2405

----------
# Test system: A549 cells
# Experiment description: MTT assay, percent survival of A549 cells
# Format: cell-based
# Measurement context: Table 3; A549; 50 μM
Label TRUE when Average Absorbance is strictly below 0.6; at or above that, label FALSE.

q: In plain terms, does N[N](c1cc([N+](=O)[O-])cc([N+](=O)[O-])c1)[Pt]([NH2])([NH2])([Cl])([Cl])[N+](=O)[O-] come in under 0.6 for Average Absorbance?
a: TRUE

q: Record [NH2][Pt]([NH2])([Cl])([Cl])([N]1C(=O)CC(C(=O)O)NC1=O)[N+](=O)[O-] (centres unmarked) : is its Average Absorbance strictly below 0.6?
a: TRUE

q: # check: Average Absorbance < 0.6 for Nc1cccc2c(=O)[nH][n]([Pt]([NH2])([NH2])([Cl])([Cl])[N+](=O)[O-])c(=O)c12
a: FALSE

q: Please check: Average Absorbance for [NH2][Pt]([NH2])([Cl])([Cl])[N+](=O)[O-].c1ccc(-c2oc(-c3ccccc3)c3ccccc23)cc1 , strictly under 0.6 or not?
a: TRUE

q: Confirm or reject: Average Absorbance of N.N.[Cl][Pt][Cl] [Cis-Pt, Cis-diammineoplatinum(II) dichloride, reference compound] lies strictly below 0.6
a: FALSE

q: Strictly below 0.6 in Average Absorbance? [NH2][Pt]([NH2])([Cl])([Cl])([N+](=O)[O-])[o+]1c2cc(=O)ccc-2c(-c2ccccc2C(=O)O)c2ccc(O)cc21
a: FALSE

q: Dear reviewer, please state whether CCN(CC)c1ccc2c(-c3ccccc3C(=O)O)c3ccc(=[N+](CC)CC)cc-3[o+]([Pt]([NH2])([NH2])([Cl])([Cl])[N+](=O)[O-])c2c1.[Cl-] has Average Absorbance strictly beneath 0.6.
a: FALSE

----------
# Tested on: A549 cells
# Experiment description: MTT assay, percent survival of A549 cells
# Type: cell-based
# Measurement context: Table 1; A549; 30 μM
Endpoint: Average Absorbance
Lab note: record the figure alone, no unit after it.

| Compound | Average Absorbance |
| --- | --- |
| Nc1cccc2c(=O)[nH][n]([Pt]([NH2])([NH2])([Cl])([Cl])[N+](=O)[O-])c(=O)c12 | 2.3214 |
| [NH2][Pt]([NH2])([Cl])([Cl])([N]1C(=O)CC(C(=O)O)NC1=O)[N+](=O)[O-] (centres unmarked) | 2.3268 |
| CCN(CC)c1ccc2c(-c3ccccc3C(=O)O)c3ccc(=[N+](CC)CC)cc-3[o+]([Pt]([NH2])([NH2])([Cl])([Cl])[N+](=O)[O-])c2c1.[Cl-] | 2.2671 |
| [NH2][Pt]([NH2])([Cl])([Cl])([N+](=O)[O-])[o+]1c2cc(=O)ccc-2c(-c2ccccc2C(=O)O)c2ccc(O)cc21 | 2.3599 |

q: Form field: reported Average Absorbance of CC(C)(C(=O)O)C(O)(C(=O)O)C(C)(C)C(=O)[O][Pt]([NH2])([NH2])([Cl])([Cl])[N+](=O)[O-] (centres unmarked)
a: 2.3778

q: Please give the measured Average Absorbance for this compound: N[N](c1cc([N+](=O)[O-])cc([N+](=O)[O-])c1)[Pt]([NH2])([NH2])([Cl])([Cl])[N+](=O)[O-]
a: 2.1451

q: Tell me the measured Average Absorbance of N.N.[Cl][Pt][Cl] [Cis-Pt, Cis-diammineoplatinum(II) dichloride, reference compound] , please.
a: 2.3526

q: Recorded Average Absorbance of [NH2][Pt]([NH2])([Cl])([Cl])[N+](=O)[O-].c1ccc(-c2oc(-c3ccccc3)c3ccccc23)cc1 , please.
a: 2.1124

----------
Entries annotated with measured Percent Survival
# System: A549 cells
# Experiment description: MTT assay, percent survival of A549 cells
# Type: cell-based
# Measurement context: Table 1; A549; 20 μM
Enter your answer as a number in %; do not include the unit.

| Compound | Reported value |
| --- | --- |
| Nc1cccc2c(=O)[nH][n]([Pt]([NH2])([NH2])([Cl])([Cl])[N+](=O)[O-])c(=O)c12 | 109.1017 |

q: Form field - read-out: Percent Survival; system: A549 cells; submitted item: [NH2][Pt]([NH2])([Cl])([Cl])[N+](=O)[O-].c1ccc(-c2oc(-c3ccccc3)c3ccccc23)cc1
a: 100.9148

q: Query Percent Survival on A549 cells for CC(C)(C(=O)O)C(O)(C(=O)O)C(C)(C)C(=O)[O][Pt]([NH2])([NH2])([Cl])([Cl])[N+](=O)[O-] (stereo not shown)
a: 99.5087

q: # value lookup — system A549 cells, readout Percent Survival, item N[N](c1cc([N+](=O)[O-])cc([N+](=O)[O-])c1)[Pt]([NH2])([NH2])([Cl])([Cl])[N+](=O)[O-]
a: 78.5820
